# credit: patent US20250355001A1

Assign ka to each entry below.
biological target: T1, hT40 (T441, SEQ ID NO: 1) (Homo sapiens, UniProt P10636); assay: Biacore X100 SPR kinetics of scAbs for hT40; format: binding; settings: Table 23; scAb captured, T441 (hT40) analyte; 1:1 model
T1 construct: Full length tau (hT40)
T1 sequence (P10636 1-441 isoform P10636-8): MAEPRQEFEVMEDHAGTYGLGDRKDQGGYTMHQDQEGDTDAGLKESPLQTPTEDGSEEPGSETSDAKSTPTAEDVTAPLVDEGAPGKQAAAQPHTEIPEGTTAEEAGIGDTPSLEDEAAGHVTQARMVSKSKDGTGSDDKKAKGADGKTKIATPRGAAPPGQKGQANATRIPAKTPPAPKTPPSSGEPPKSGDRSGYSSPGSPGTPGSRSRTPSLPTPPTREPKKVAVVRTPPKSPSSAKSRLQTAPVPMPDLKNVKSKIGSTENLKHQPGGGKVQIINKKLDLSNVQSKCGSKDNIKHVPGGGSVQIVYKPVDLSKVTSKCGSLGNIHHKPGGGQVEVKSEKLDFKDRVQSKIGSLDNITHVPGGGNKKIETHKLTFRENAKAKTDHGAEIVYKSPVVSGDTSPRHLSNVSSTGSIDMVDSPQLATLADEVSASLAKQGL
// return numeric value only (unit: M⁻¹ s⁻¹, not printed)

// ka lookup, key: S1G2: sheep-derived anti-tau core clone; scFv SEQ ID NO: 81, VH 455, VL 456 (protein, S1G2 amino acid sequence) scFv: QVQLQESGPSLVKPSQTLSLTCTVSGFSLTSNSVGWVRQAPGKAPEWVAGIDTDGEEGYNPALNSRLSITRDTSKSQVSLSLSSVTSEDTAVYYCGRSYRADGLAYGYVQAIDYWGPGLLVTVSSEGKSSGASGESKVDDQAVVTQPSSVSGSLGQRVSITCSGSFIGISSVGWFQQLPGSGLRTIIVASDGRPSGVPDRFSMSKSGNTATLTISSLQAEDEADYFCGSSDRTPYTGVFGSGTRLTVLG 1.057e+06

// ka lookup, key: NS2A1: anti-tau clone, Table 11; SEQ ID NO: 220 (protein, NS2A1 amino acid sequence) scFv: QVQLQESGPSLVKPSQTLSLTCTVSGFSLSTNSVGWVRQAPGKAPEWVAGIDTDGEEGFNPVLKSRLSITRDTSKSQVSLSLSNVTSEDTAVYYCGRSYRTDGLAYGYVQAIDYWGPGLLVTISSEGKSSGASGESKVDDQSVLTQPSSVSGSPGQTVSITCSGSYIGSSGVGWFQQLPGSGLRTIIVASDGRPSGVPDGFSMSKSGNTATLTISSLQAEDEADYFCGSSDRTQYTGLFGSGTRLTVLG 252100

// ka lookup, key: S1E12: anti-tau clone, Table 11; SEQ ID NO: 218 (protein, S1E12 amino acid sequence) scFv: QVQLQESGPSLVKPSQTLSLTCTVSGFSLGSNSVGWVRQAPGKAPEWVAGIDTDGEEGYNPALNSRLSITRDTSKSQVSLSLSSVTSEDTAVYYCGRSYRADGLAYGYVQAIDYWGPGLLVTVSSEGKSSGASGESKVDDRVVRTQPSSVSGSLGQRVSITCSGSFIGISSVGWFQQLPGSGLRTIIVASDGRPSGVPDRFSMSKSGNTATLTISSLQAEDEADYFCGSSDRTQYTGVFGSGTRLTVLG 385000

// ka lookup, key: CB7: human-specific N-terminal anti-tau clone, Table 10; SEQ ID NO: 364 (protein, CB7 amino acid sequence) scFv: QVQLQESGPSLVKPSQTLSLTCTVSGFSLTNYRVGWVRQAPGKALEWVSNIRSGGTTWYNPALKSRLSITADTSKSQVSLSLSSVTTEDTAVYYCARDSSGDLYAYDYWGPGLLVTVSSEGKSSGASGESKVDDQAVLTQPSSVSRSLGQSVSMTCSGSSSNVGYGNYMAWFQQVPGSAPKLLIYGATSRASGVPDRFSGSRSGNTATLTISSLQAEDEADYYCASYDSTSGGVFGSGTRLTVLG 133400
